Molecular target: Dual specificity protein kinase CLK4 (Homo sapiens) (UniProt Q9HAZ1)
Sequence (Q9HAZ1 whole entry, looked up): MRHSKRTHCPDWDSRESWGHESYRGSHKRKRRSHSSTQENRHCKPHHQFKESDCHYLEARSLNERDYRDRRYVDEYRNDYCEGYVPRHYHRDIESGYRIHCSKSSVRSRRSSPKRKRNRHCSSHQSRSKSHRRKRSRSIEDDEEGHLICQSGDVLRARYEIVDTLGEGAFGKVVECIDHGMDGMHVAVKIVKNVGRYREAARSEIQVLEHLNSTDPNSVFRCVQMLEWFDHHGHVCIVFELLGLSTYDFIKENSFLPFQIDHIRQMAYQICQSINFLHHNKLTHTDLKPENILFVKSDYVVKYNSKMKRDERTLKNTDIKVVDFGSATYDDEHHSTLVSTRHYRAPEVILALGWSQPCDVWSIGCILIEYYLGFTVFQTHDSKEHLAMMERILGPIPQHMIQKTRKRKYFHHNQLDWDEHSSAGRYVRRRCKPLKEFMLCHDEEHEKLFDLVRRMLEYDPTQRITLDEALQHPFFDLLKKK
Assay: qHTS Assay for Inhibitors of CDC-like Kinase 4 (ADP-Glo Assay) (AID 1771); also: nearly all actives have a fitted effect of over 70% in size
Conditions: recombinant CLK4, ADP-Glo luminescence; series mostly up to 80 µM
From the text: NIH Molecular Libraries Probe Production Centers Network [MLPCN] NIH Chemical Genomics Center [NCGC] […] In the assay, the ADP levels were detected using Promega ADP-Glo technology wherein the remaining ATP from the kinase reaction is first depleted with an ATPase reagent followed by a reagent that contains and enzyme which converts the ADP produced to ATP as well as Ultra-Glo luciferase and D-luciferin which generates a bioluminescence signal from the ATP. […]
Inconclusive results are not listed. Activity calls are given as the source filed them. Calls follow the shape of the dose curve; as a rule, active = well fitted inhibition curve with a large enough effect; inconclusive = small, poorly fitted or top-dose-only effect; inactive = flat fitted curve, though single readings scatter.
Outcome codes: 1.0 = active, 0.0 = inactive

Structure string	Category label
CCNc1ncc2nc(CCc3ccccc3)c(=O)n(Cc3cccc(OC)c3)c2n1	0.0
Cn1c(=O)c(-c2ccccc2)nc2cnc(N3CCOCC3)nc21	0.0
COCCn1c(=O)c(-c2ccccc2)nc2cnc(Oc3cccc(Cl)c3)nc21	0.0
CCNc1ncc2ncc(=O)n(Cc3ccc(F)cc3)c2n1	1.0
COc1ccc2[nH]cc(CCNc3ncncc3-c3ccccc3OC)c2c1	1.0
COc1ccc2[nH]cc(CCNc3ncncc3-c3ccccc3C)c2c1	1.0
COc1ccccc1CNc1nc(-c2ccoc2)nc2ccccc12	0.0
Clc1ccccc1-c1ccc2ncnc(NCCN3CCOCC3)c2c1	1.0
COc1ccc2[nH]cc(CCNc3nc(-c4ccccc4OC)nc4ccccc34)c2c1	1.0
COc1cccc(Nc2ncc3ncc(=O)n(Cc4ccc(F)cc4)c3n2)c1	1.0
COCCn1c(=O)c(-c2cccs2)nc2cnc(Oc3ccccc3)nc21	0.0
